Test system: Acinetobacter
protocol_description: Antimicrobial activity against imipenem non-susceptible Acinetobacter assessed as resistant isolate by broth microdilution method
Assay type: functional
metric_name: Activity (%)
Your answer should be a plain number; it is taken to be in %.

Solved cases (3 shown):
| compound | value_measured |
| --- | --- |
| C[C@@H](O)[C@H]1C(=O)N2C(C(=O)O)=C(SCCNC=N)C[C@H]12 [IMIPENEM ANHYDROUS] | 96.1 |
| CC(C)(O/N=C(\C(=O)N[C@@H]1C(=O)N2C(C(=O)[O-])=C(C[n+]3ccccc3)CS[C@H]12)c1csc(N)n1)C(=O)O [CEFTAZIDIME] | 84.3 |
| C[C@@H](O)[C@H]1C(=O)N2C(C(=O)O)=C(S[C@@H]3CN[C@H](C(=O)N(C)C)C3)[C@H](C)[C@H]12 [MEROPENEM] | 100 |

# next compound below
*Q* I'd like to know its Activity. The compound in question is CO/N=C(\C(=O)N[C@@H]1C(=O)N2C(C(=O)[O-])=C(C[N+]3(C)CCCC3)CS[C@H]12)c1csc(N)n1
*A* 64.7

====

Test system: Proteus mirabilis
protocol_description: Antimicrobial activity against Non-ESBL Proteus mirabilis assessed as susceptible isolate by broth microdilution method
Type: functional
# Activity per record follows

| compound | Activity |
| --- | --- |
| C[C@@H](O)[C@H]1C(=O)N2C(C(=O)O)=C(S[C@@H]3CN[C@H](CNS(N)(=O)=O)C3)[C@H](C)[C@H]12 [DORIPENEM] | 98.9% |
| C[C@@H](O)[C@H]1C(=O)N2C(C(=O)O)=C(S[C@@H]3CN[C@H](C(=O)N(C)C)C3)[C@H](C)[C@H]12 [MEROPENEM] | 100% |

# next compound below
*Q* I'd like to know its Activity. The compound in question is CC(C)(O/N=C(\C(=O)N[C@@H]1C(=O)N2C(C(=O)[O-])=C(C[n+]3ccccc3)CS[C@H]12)c1csc(N)n1)C(=O)O [CEFTAZIDIME]
*A* 99.5%

====

# MIC50 per record follows
System: Pseudomonas aeruginosa
protocol_description: Antimicrobial activity against imipenem non-susceptible Pseudomonas aeruginosa by broth microdilution method
Format: functional

| compound | MIC50 |
| --- | --- |
| C[C@@H](O)[C@H]1C(=O)N2C(C(=O)O)=C(S[C@@H]3CN[C@H](C(=O)N(C)C)C3)[C@H](C)[C@H]12 | 8 mg/L |
| C[C@@H](O)[C@H]1C(=O)N2C(C(=O)O)=C(SCCNC=N)C[C@H]12 [IMIPENEM ANHYDROUS] | 16 mg/L |
| CC(C)(O/N=C(\C(=O)N[C@@H]1C(=O)N2C(C(=O)[O-])=C(C[n+]3ccccc3)CS[C@H]12)c1csc(N)n1)C(=O)O | 4 mg/L |
| C[C@@H](O)[C@H]1C(=O)N2C(C(=O)O)=C(S[C@@H]3CN[C@H](CNS(N)(=O)=O)C3)[C@H](C)[C@H]12 | 2 mg/L |

# next compound below
*Q* Query the reported MIC50 for Pseudomonas aeruginosa; item: CO/N=C(\C(=O)N[C@@H]1C(=O)N2C(C(=O)[O-])=C(C[N+]3(C)CCCC3)CS[C@H]12)c1csc(N)n1
*A* 8 mg/L

====

Tested on: Klebsiella pneumoniae
protocol_description: Antimicrobial activity against ESBL producing Klebsiella pneumoniae assessed as intermediate isolate by broth microdilution method
Assay type: functional
# Activity per record follows
Your answer should be a plain number; it is taken to be in %.

*Q* I'd like to know its Activity. The molecule in question is C[C@@H](O)[C@H]1C(=O)N2C(C(=O)O)=C(S[C@@H]3CN[C@H](C(=O)N(C)C)C3)[C@H](C)[C@H]12 [MEROPENEM]
*A* 0

*Q* Now the molecule CO/N=C(\C(=O)N[C@@H]1C(=O)N2C(C(=O)[O-])=C(C[N+]3(C)CCCC3)CS[C@H]12)c1csc(N)n1
*A* 2.3

*Q* Now the molecule CO/N=C(\C(=O)N[C@@H]1C(=O)N2C(C(=O)O)=C(CSc3nc(=O)c(O)nn3C)CS[C@H]12)c1csc(N)n1 [CEFTRIAXONE]
*A* 8.2

*Q* Now the molecule CC(C)(O/N=C(\C(=O)N[C@@H]1C(=O)N2C(C(=O)[O-])=C(C[n+]3ccccc3)CS[C@H]12)c1csc(N)n1)C(=O)O [CEFTAZIDIME]
*A* 0

*Q* Now the molecule C[C@@H](O)[C@H]1C(=O)N2C(C(=O)O)=C(SCCNC=N)C[C@H]12 [IMIPENEM ANHYDROUS]
*A* 2.3

====

System: Pseudomonas aeruginosa
protocol_description: Antimicrobial activity against Ceftazidime susceptible Pseudomonas aeruginosa by broth microdilution method
Assay type: functional
# MIC90 per record follows
Your answer should be a plain number; it is taken to be in µg/mL.

Solved cases (4 shown):
| molecule | target | MIC90 / µg/mL |
| --- | --- | --- |
| C[C@@H](O)[C@H]1C(=O)N2C(C(=O)O)=C(S[C@@H]3CN[C@H](C(=O)N(C)C)C3)[C@H](C)[C@H]12 [MEROPENEM] | Pseudomonas aeruginosa | 8 |
| C[C@@H](O)[C@H]1C(=O)N2C(C(=O)O)=C(SCCNC=N)C[C@H]12 [IMIPENEM ANHYDROUS] | Pseudomonas aeruginosa | 16 |
| CO/N=C(\C(=O)N[C@@H]1C(=O)N2C(C(=O)[O-])=C(C[N+]3(C)CCCC3)CS[C@H]12)c1csc(N)n1 | Pseudomonas aeruginosa | 8 |
| C[C@@H](O)[C@H]1C(=O)N2C(C(=O)O)=C(S[C@@H]3CN[C@H](CNS(N)(=O)=O)C3)[C@H](C)[C@H]12 [DORIPENEM] | Pseudomonas aeruginosa | 2 |

*Q* I'd like to know its MIC90. The molecule in question is CC(C)(O/N=C(\C(=O)N[C@@H]1C(=O)N2C(C(=O)[O-])=C(C[n+]3ccccc3)CS[C@H]12)c1csc(N)n1)C(=O)O [CEFTAZIDIME]
*A* 4

====

Tested on: Acinetobacter
protocol_description: Antimicrobial activity against imipenem non-susceptible Acinetobacter assessed as intermediate isolate by broth microdilution method
Type: functional
metric_name: Activity
Form field: result (number plus unit)

Solved cases (3 shown):
| compound | Activity |
| --- | --- |
| C[C@@H](O)[C@H]1C(=O)N2C(C(=O)O)=C(SCCNC=N)C[C@H]12 [IMIPENEM ANHYDROUS] | 3.9% |
| C[C@@H](O)[C@H]1C(=O)N2C(C(=O)O)=C(S[C@@H]3CN[C@H](C(=O)N(C)C)C3)[C@H](C)[C@H]12 | 0% |
| CC(C)(O/N=C(\C(=O)N[C@@H]1C(=O)N2C(C(=O)[O-])=C(C[n+]3ccccc3)CS[C@H]12)c1csc(N)n1)C(=O)O | 0% |

*Q* I'd like to know its Activity. The compound in question is CO/N=C(\C(=O)N[C@@H]1C(=O)N2C(C(=O)[O-])=C(C[N+]3(C)CCCC3)CS[C@H]12)c1csc(N)n1
*A* 33.3%

====

# Activity per record follows
System: Enterobacteriaceae
protocol_description: Antimicrobial activity against ceftazidime-susceptible Enterobacteriaceae assessed as resistant isolate by broth microdilution method
Assay type: functional
Your answer should be a plain number; it is taken to be in %.

| molecule | readout_unit | value_measured |
| --- | --- | --- |
| C[C@@H](O)[C@H]1C(=O)N2C(C(=O)O)=C(SCCNC=N)C[C@H]12 [IMIPENEM ANHYDROUS] | % | 0.1 |
| CC(C)(O/N=C(\C(=O)N[C@@H]1C(=O)N2C(C(=O)[O-])=C(C[n+]3ccccc3)CS[C@H]12)c1csc(N)n1)C(=O)O | % | 0 |
| CO/N=C(\C(=O)N[C@@H]1C(=O)N2C(C(=O)[O-])=C(C[N+]3(C)CCCC3)CS[C@H]12)c1csc(N)n1 | % | 0.1 |
| CO/N=C(\C(=O)N[C@@H]1C(=O)N2C(C(=O)O)=C(CSc3nc(=O)c(O)nn3C)CS[C@H]12)c1csc(N)n1 | % | 0.3 |

# next molecule below
*Q* I'd like to know its Activity. The molecule in question is C[C@@H](O)[C@H]1C(=O)N2C(C(=O)O)=C(S[C@@H]3CN[C@H](C(=O)N(C)C)C3)[C@H](C)[C@H]12
*A* 0.1

====

Tested on: Proteus mirabilis
protocol_description: Antimicrobial activity against Non-ESBL Proteus mirabilis assessed as susceptible isolate by broth microdilution method
Assay type: functional
# Activity per record follows
Your answer should be a plain number; it is taken to be in %.

| compound | readout_unit | Activity |
| --- | --- | --- |
| CO/N=C(\C(=O)N[C@@H]1C(=O)N2C(C(=O)O)=C(CSc3nc(=O)c(O)nn3C)CS[C@H]12)c1csc(N)n1 | % | 99.7 |
| CO/N=C(\C(=O)N[C@@H]1C(=O)N2C(C(=O)[O-])=C(C[N+]3(C)CCCC3)CS[C@H]12)c1csc(N)n1 | % | 99.7 |

*Q* I'd like to know its Activity. The compound in question is C[C@@H](O)[C@H]1C(=O)N2C(C(=O)O)=C(SCCNC=N)C[C@H]12 [IMIPENEM ANHYDROUS]
*A* 97.3
